# System: HeLa Kyoto;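 further: synchronized HeLa Kyoto cells, proteins quantified by TMT10plex mass spectrometry, three biological replicates, mitosis taken 0.5 h after nocodazole release, G1/S directly after double thymidine block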
# protocol_details: thermal stability score vs G1/S (z-score of summed log2 fold changes over temperatures); higher = more thermally stable than in G1/S
# condition_parameters: cell cycle stage: early G1 (4.5 h after nocodazole release)

seq_string	thermal stability score
MSQAVQTNGTQPLSKTWELSLYELQRTPQEAITDGLEIVVSPRSLHSELMCPICLDMLKNTMTTKECLHRFCADCIITALRSGNKECPTCRKKLVSKRSLRPDPNFDALISKIYPSRDEYEAHQERVLARINKHNNQQALSHSIEEGLKIQAMNRLQRGKKQQIENGSGAEDNGDSSHCSNASTHSNQEAGPSNKRTKTSDDSGLELDNNNAAMAIDPVMDGASEIELVFRPHPTLMEKDDSAQTRYIKTSGNATVDHLSKYLAVRLALEELRSKGESNQMNLDTASEKQYTIYIATASGQFTVLNGSFSLELVSEKYWKVNKPMELYYAPTKEHK [RNF2]	0.412
MGKMAAAVGSVATLATEPGEDAFRKLFRFYRQSRPGTADLEGVIDFSAAHAARGKGPGAQKVIKSQLNVSSVSEQNAYRAGLQPVSKWQAYGLKGYPGFIFIPNPFLPGYQWHWVKQCLKLYSQKPNVCNLDKHMSKEETQDLWEQSKEFLRYKEATKRRPRSLLEKLRWVTVGYHYNWDSKKYSADHYTPFPSDLGFLSEQVAAACGFEDFRAEAGILNYYRLDSTLGIHVDRSELDHSKPLLSFSFGQSAIFLLGGLQRDEAPTAMFMHSGDIMIMSGFSRLLNHAVPRVLPNPEGEGLPHCLEAPLPAVLPRDSMVEPCSMEDWQVCASYLKTARVNMTVRQVLATDQNFPLEPIEDEKRDISTEGFCHLDDQNSEVKRARINPDS [ALKBH1]	-0.273
MTDQAFVTLTTNDAYAKGALVLGSSLKQHRTTRRLVVLATPQVSDSMRKVLETVFDEVIMVDVLDSGDSAHLTLMKRPELGVTLTKLHCWSLTQYSKCVFMDADTLVLANIDDLFDREELSAAPDPGWPDCFNSGVFVYQPSVETYNQLLHLASEQGSFDGGDQGILNTFFSSWATTDIRKHLPFIYNLSSISIYSYLPAFKVFGASAKVVHFLGRVKPWNYTYDPKTKSVKSEAHDPNMTHPEFLILWWNIFTTNVLPLLQQFGLVKDTCSYVNVLSDLVYTLAFSCGFCRKEDVSGAISHLSLGEIPAMAQPFVSSEERKERWEQGQADYMGADSFDNIKRKLDTYLQ [GYG1]	-3.5
MSSGAASGTGRGRPRGGGPGPGDPPPSETHKLVVVGGGGVGKSALTIQFIQSYFVSDYDPTIEDSYTKICSVDGIPARLDILDTAGQEEFGAMREQYMRAGHGFLLVFAINDRQSFNEVGKLFTQILRVKDRDDFPVVLVGNKADLESQRQVPRSEASAFGASHHVAYFEASAKLRLNVDEAFEQLVRAVRKYQEQELPPSPPSAPRKKGGGCPCVLL [RRAS]	0.904
MSDLQAAEGPGSWSPTARPGSAGGVGDCQGVEGSQAAASENEDLENKDTSLLASATDPEPCSSPHRPQMVSPVSKDATEDLRKATGPLEAQALVKQDLLPADQAQVLNEMAKYQVPQRSGDIVMIQSEHTGAIDVLSADLESADLLGDHRKVSPPLMAPPCIWTFAKVKEFKSKLGKEKNSRLVVKRGEVVTIRVPTHPEGKRVCWEFATDDYDIGFGVYFDWTPVTSTDITVQVSDSSDDEDEEEEEEEEIEEPVPAGDVERGSRSSLRGRYGEVMPVYRRDSHRDVQAGSHDYPGEGIYLLKFDNSYSLLRNKTLYFHIYYTS [TMED8]	-0.422

Reference source for all entries: the supplement of paper PMC5998384
